Would you kindly list ADCC reporter cyCCR8 EC50 for each of these binders?
Molecular target: cynomolgus CCR8 (cynomolgus monkey, UniProt G7NYJ2 1-355)
Sequence (G7NYJ2 entry or part of it): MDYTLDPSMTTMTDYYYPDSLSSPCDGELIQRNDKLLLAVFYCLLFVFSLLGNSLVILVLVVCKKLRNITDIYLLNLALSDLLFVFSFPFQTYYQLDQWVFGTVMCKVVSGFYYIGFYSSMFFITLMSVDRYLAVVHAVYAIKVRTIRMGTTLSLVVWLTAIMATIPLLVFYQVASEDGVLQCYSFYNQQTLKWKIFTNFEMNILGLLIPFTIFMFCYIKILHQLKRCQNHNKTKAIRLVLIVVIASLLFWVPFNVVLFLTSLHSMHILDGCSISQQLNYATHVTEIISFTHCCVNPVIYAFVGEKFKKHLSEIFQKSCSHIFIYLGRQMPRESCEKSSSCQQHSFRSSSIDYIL
Experiment: cell-based or functional assay
Record the value in pM, omitting the unit from your answer.

*Q* Name the recorded ADCC reporter cyCCR8 EC50 for AC-264700 (antibody, V domains shown) VH: EVQLVESGGGLVQPGGSLKLSCAASGFIFSNAVMYWVRQASGKGLEWVARIKTKFNNYATYYADSVKGRFTISRDDSKNMVYLQMNSLKTEDTAVYYCTAGDRNKPFAYWGQGTLVTVSS VL: ETVVTQSPATLSLSPGERATLSCRASDSVITLLHWFQQKPGQAPRLLIHGASNLESRVPARFSGSGSGTDFTLTISSLEPEDFATYFCQQSWNDPYTFGQGTKLEIKR .
*A* 790

*Q* One more binder: AC-277371 (antibody, V domains shown) VH: EVQLVESGGGLVQPGGSLKLSCAASGFIFSNAVMYWVRQASGKGLEWVARIKTKFNNYATYYADAVKGRFTISRDDSKNMVYLQMNSLKTEDTAVYYCTAGDRNKPFAYWGQGTLVTVSS VL: ETVVTQSPATLSLSPGERATLSCRASGSVITLLHWFQQKPGQAPRLLIHGASNLESRVPARFSGSGSGTDFTLTISSLEPEDFATYFCQQSWNDPYTFGQGTKLEIKR
*A* 570

*Q* Also AC-277483 (antibody, V domains shown) VH: EVQLVESGGGLVQPGGSLKLSCAASGFIFSNAVMYWVRQASGKGLEWVARIKTKFNNYATYYADAVKGRFTISRDDSKNMVYLQMNSLKTEDTAVYYCTAGDRNKPFAYWGQGTLVTVSS VL: ETVVTQSPATLSLSPGERATLSCRASDAVITLLHWFQQKPGQAPRLLIHGASNLESRVPARFSGSGSGTDFTLTISSLEPEDFATYFCQQSWNDPYTFGQGTKLEIKR , if possible.
*A* 1190

*Q* Next: AC-277357 (fucosylated) (antibody, human IgG1, kappa, V domains shown, AC-264700 with LCDR1 D27→T. Human IgG1 kappa) VH: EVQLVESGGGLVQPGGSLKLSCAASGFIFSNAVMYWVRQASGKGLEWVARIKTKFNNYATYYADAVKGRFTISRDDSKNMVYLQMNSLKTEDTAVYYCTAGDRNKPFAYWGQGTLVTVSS VL: ETVVTQSPATLSLSPGERATLSCRASTSVITLLHWFQQKPGQAPRLLIHGASNLESRVPARFSGSGSGTDFTLTISSLEPEDFATYFCQQSWNDPYTFGQGTKLEIKR
*A* 750
